Tested on: GSC-3 (3#-GSC)
method: MTS cell viability assay, glioblastoma stem cells GSC-3 (3#-GSC)
Type: cell-based
details: primary viability screening, 72 hours, MTS; test concentration not stated
Description: Primary viability screening: (1) the synthesized compounds 3a to 13d were respectively dissolved in DMSO to prepare a 40 μg/mL cannabicyclol and cannabicyclol derivative solutions. (2) A control group: a 200 μL DMSO solvent. […] (10) The absorbance value at 490 nm was measured on an enzyme labeling apparatus, and the IC50 value was calculated.
Output yes for records whose Cell viability in 3#-GSC (%) is lower than 50%, no for records at or above 50%.

- compound: "CCCCCc1cc(OCC(=O)NCCc2cc3ccccc3[nH]2)c2c(c1)OC1(C)CCC3C1C2C3(C)C (stereo not drawn) [Compound 7h]"
  class.name: "no"
- compound: "CCCCCc1cc(O)c2c(c1)OC1(C)CCC3C(c4ccccc4)C2C31 (stereo not drawn) [Compound 3x]"
  class.name: "no"
- compound: "C=CCOc1cc(CCCCC)cc2c1C1C3C(CCC3(C)O2)C1(C)C (stereo not drawn) [Compound 7a]"
  class.name: "no"
- compound: "CCCc1cc(O)c2c(c1)OC1(C)CCC3C1C2C3(C)C (stereo not drawn) [Compound 3d]"
  class.name: "yes"
- compound: "CCCCCc1cc(O)c2c(c1)OC1(C)CCC3C(C)C2C31 (stereo not drawn) [Compound 3u]"
  class.name: "yes"
- compound: "CCCCCc1cc(OCC)c2c(c1)OC1(C)CCC3C1C2C3(C)C (stereo not drawn) [Compound 7c]"
  class.name: "no"
- compound: "C#CCOc1cc(CCCCC)cc2c1C1C3C(CCC3(C)O2)C1(C)C (stereo not drawn) [Compound 7e]"
  class.name: "no"
- compound: "CCCCCc1cc(OC(=O)Cc2ccc3ccccc3c2)c2c(c1)OC1(C)CCC3C1C2C3(C)C (stereo not drawn) [Compound 9e]"
  class.name: "no"
- compound: "CCCCCc1cc(OC(=O)c2ccncc2)c2c(c1)OC1(C)CCC3C1C2C3(C)C (stereo not drawn) [Compound 9i]"
  class.name: "no"
- compound: "CCCCCc1cc(OC(=O)CCN(C)C)c2c(c1)OC1(C)CCC3C1C2C3(C)C (stereo not drawn) [Compound 9n]"
  class.name: "yes"
- compound: "CCCCCCCc1cc(O)c2c(c1)OC1(C)CCC3C1C2C3(C)C (stereo not drawn) [Compound 3g]"
  class.name: "no"
- compound: "CCCCc1cc(O)c2c(c1)OC1(C)CCC3C1C2C3(C)C (stereo not drawn) [Compound 3e]"
  class.name: "yes"
- compound: "CCCCCc1cc(OC(=O)CN2CCOCC2)c2c(c1)OC1(C)CCC3C1C2C3(C)C (stereo not drawn) [Compound 9k]"
  class.name: "yes"
- compound: "CCCCCCCCCCCCCc1cc(O)c2c(c1)OC1(C)CCC3C1C2C3(C)C (stereo not drawn) [Compound 3i]"
  class.name: "yes"
- compound: "CCCCCc1cc(OC)c2c(c1)OC1(C)CCC3C1C2C3(C)C (stereo not drawn) [Compound 7b]"
  class.name: "no"
- compound: "CCCCCc1cc(OC(=O)CN(C)C)c2c(c1)OC1(C)CCC3C1C2C3(C)C (stereo not drawn) [Compound 9m]"
  class.name: "yes"
- compound: "CCCCCc1cc(O)c2c(c1)OC1(C)CCC3C(C4CC4)C2C31 (stereo not drawn) [Compound 3y]"
  class.name: "yes"
- compound: "C=CC(=O)Oc1cc(CCCCC)cc2c1C1C3C(CCC3(C)O2)C1(C)C (stereo not drawn) [Compound 9f]"
  class.name: "yes"

Sourced from patent US20250353825A1
